For each entry below, report its pKd value.
Molecular target: T1, GFP-9S library array, motif 4 ND N98F;D124H (synthetic construct, N98F;D124H)
T1 chain: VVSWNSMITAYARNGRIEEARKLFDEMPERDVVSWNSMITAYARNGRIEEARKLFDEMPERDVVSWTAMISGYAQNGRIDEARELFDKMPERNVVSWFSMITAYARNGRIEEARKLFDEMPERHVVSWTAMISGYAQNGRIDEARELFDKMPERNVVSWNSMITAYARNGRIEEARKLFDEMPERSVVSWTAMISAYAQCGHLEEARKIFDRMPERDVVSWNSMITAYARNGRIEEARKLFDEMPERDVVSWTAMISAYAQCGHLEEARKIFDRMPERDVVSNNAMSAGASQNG
Assay: high-throughput RNA pulldown from lysate on Ni-NTA beads; HRP: 50 mM Tris pH 8, 150 mM NaCl, 1 mM beta-mercaptoethanol, 50 ug/ml BSA, 3 ug/ml yeast RNA, 0.5% heparin; ITC and FP: Tris pH 8, 200 mM KCl, 5% glycerol; MST: 50 mM Tris pH 8, 200 mM NaCl, 1 mM DTT, BSA, heparin, 0.05% Tween 20
Conditions: tags: N-terminal His-eGFP; label: 5' IRDye 800CW
Numbers only, as −log10 of the molar value.

# Binder, Observed
records = [
    ("AUUAAACGUGA (ssRNA) [IR-rpoA-A]", 6.73),
]

Give its pKd value. Item: AUUAUACGUGA (ssRNA) [IR-rpoA-U]
6.86
